test system: P. falciparum 3D7 gametocytes; assay: alamarBlue gametocyte viability assay, strain 3D7; type: cell-based, Plasmodium falciparum; conditions: Malaria Box; DMSO set at 0%, 100 nM epoxomicin set at -100%
Label Yes for high-side Max Resp (at or above -70%) and No for low-side Max Resp (below it).

COMPOUND: COc1ccc(C2c3ccc4ccccc4c3Oc3ncn(CCCN(C)C)c(=N)c32)cc1 (centres unmarked)
ASSIGNED_LABEL: No
--
COMPOUND: C=CCc1c(C)nc2ccccc2c1O
ASSIGNED_LABEL: Yes
--
COMPOUND: O=C(Nc1ccc(Cl)cc1C(=O)Nc1ccncc1)c1ccc(Cl)cc1Cl
ASSIGNED_LABEL: Yes
--
COMPOUND: CCOC(=O)c1cnc2c(C)cc(C)cc2c1Nc1ccc(OC)c(OC)c1
ASSIGNED_LABEL: Yes
--
COMPOUND: O=c1nc(C=Cc2ccc(Br)cc2)oc2ccccc12
ASSIGNED_LABEL: Yes
--
COMPOUND: Brc1ccc(Nc2nc3ccccc3nc2Nc2ccc(Br)cc2)cc1
ASSIGNED_LABEL: No
--
COMPOUND: O=c1cc(NC2CCN(CCCc3ccccc3)CC2)c2cc(Cl)ccc2o1
ASSIGNED_LABEL: No
